# System: SR
# ASSAY_NAME: NCI tumour cell line growth inhibition, 48 h
Calls of active or inactive are those of the source. Cut-off read from the data, not from the text of the source: active = GI50 up to about 1.1 µM and inactive = higher.
ASSAY_READOUT: GI50

compound=O=C(N/N=C/c1cc(Br)cc(Br)c1O)c1ccccc1O reported="0.258 µM (active)"
compound=NCCCN1CCN(CCCNc2ccc3nnn4c5ccccc5c(=O)c2c34)CC1 reported="> 100 µM (inactive)"
compound="N#CC(C#N)=C1NC(=O)C(c2ccccc2)C(=O)N1 (stereo unspecified)" reported="> 100 µM (inactive)"
compound="COC(=O)C1Cc2c([nH]c3ccccc23)C(C2CCCCC2)N1 (stereo unspecified)" reported="> 100 µM (inactive)"
compound=C/C(=N\N=C(\N)OB(F)F)c1ccccn1 reported="76.6 µM (inactive)"
compound=O=C(O)CCC(=O)Oc1ccc(O)c2c1CCCC2=O reported="64 µM (inactive)"
compound=Cc1nc2c(n1CCO)C(=O)c1ccccc1C2=O reported="26.4 µM (inactive)"
compound="O=C1CC(NC(=O)C(F)(F)F)c2c1csc2Br (stereo unspecified)" reported="36.9 µM (inactive)"
compound=N#C/C(=C1\N=NC(N)=C(c2ccc(Cl)cc2)C1=O)c1ccc(Cl)cc1 reported="> 100 µM (inactive)"
compound=C/N=C(\N=c1/ss/c(=N\C)n1C)N(C)C.[O-][Cl+3]([O-])([O-])O reported="70.8 µM (inactive)"
compound=COC(=O)/C(=C/c1ccc(OC)cc1)C(C(=O)O)=C1CCCC1 reported="> 100 µM (inactive)"

Origin of measurements: ChEMBL document CHEMBL1201862
